Listed next: entries and their corresponding abundance fitness.
B1: Pituitary-specific positive transcription factor 1, residues 130 to 198; numbered along this chain, P28069 (parent)
chain: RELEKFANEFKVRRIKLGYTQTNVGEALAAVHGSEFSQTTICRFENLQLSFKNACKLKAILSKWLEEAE

# Variants of: B1
# procedure-summary: abundance fitness (aPCA) (normalised: wild type 0, dead -1); higher = more abundant; growth selection in yeast, the domain comes from the species named
# condition-info: Homo sapiens
Answer as a number with no unit attached.

INSERT INTO results (item_sequence, assay_result) VALUES
  ('RELEKFANEFKVRRIKLGYTQTNVGEALAAVHGSEFSQTLICRFENLQLSFKNACKLKAILSKWLEEAE', -0.003),
  ('RELEKFANEFKVRRIKLGYTQTNVGEALALVHGSEFSQTTICRFENLQLSFKNACKLKAILSKWLEEAE', -0.217),
  ('RELEKFANEYKVRRIKLGYTQTNVGEALAAVHGSEFSQTTICRFENLQLSFKNACKLKAILSKWLEEAE', -0.518);

Ask | Can you look up the measured abundance fitness of RELEKFANEFKVRRIKLGYTQTNVGEALAAVHGSEFSQTTICRGENLQLSFKNACKLKAILSKWLEEAE for me?
Reply | -1.03

Ask | Can you look up the measured abundance fitness of RELEKFANEFKVRRIKLGYTQTNVGEALAAVHGSEFSQTTICRFENLQLVFKNACKLKAILSKWLEEAE for me?
Reply | -0.877

Ask | Can you look up the measured abundance fitness of RELEKFANEFKVRRIKLGYTQTNVGEALAAVHGSEFSQTTICRFENLQLSFKNACKLKAILGKWLEEAE for me?
Reply | -0.239

Ask | Can you look up the measured abundance fitness of RELEKFANEFKVRRIKLGYTQTNVGEALAAVHGSEFSQTTICRFENLQDSFKNACKLKAILSKWLEEAE for me?
Reply | -0.847

Ask | Can you look up the measured abundance fitness of RELEKFANEFKVRRIKLGYTQTNVGEALAAVHGSEFSQTTICRHENLQLSFKNACKLKAILSKWLEEAE for me?
Reply | -0.565

Ask | Can you look up the measured abundance fitness of RELEKFANCFKVRRIKLGYTQTNVGEALAAVHGSEFSQTTICRFENLQLSFKNACKLKAILSKWLEEAE for me?
Reply | -0.714
